Target: Surfactant Protein D (SP-D) (Homo sapiens, UniProt P35247)
Construct: gene SFTPD; dodecamer (four trimeric units)
Sequence (P35247 21-375): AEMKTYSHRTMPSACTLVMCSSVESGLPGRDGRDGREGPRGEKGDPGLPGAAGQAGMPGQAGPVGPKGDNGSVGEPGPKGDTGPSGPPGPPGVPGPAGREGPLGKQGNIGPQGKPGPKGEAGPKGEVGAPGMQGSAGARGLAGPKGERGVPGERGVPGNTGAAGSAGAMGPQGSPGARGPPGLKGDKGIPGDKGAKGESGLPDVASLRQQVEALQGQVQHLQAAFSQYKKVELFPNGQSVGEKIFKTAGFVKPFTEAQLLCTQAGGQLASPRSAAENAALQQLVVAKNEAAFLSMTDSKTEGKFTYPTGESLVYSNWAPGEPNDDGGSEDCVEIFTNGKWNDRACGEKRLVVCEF
Assay: SPR competition of SP-D ([…]) binding to immobilised biotinylated gp120 IIIB
Settings: 5 mM CaCl2, SP-D in solution; lectin site (CRD), competes with gp120 glycans; read-out: IC50
parameterMeasured: IC50 (mM)
Kindly provide the numeric value in mM only, without the unit symbol.

(Q) Supply recorded IC50 for OC[C@H]1OC(O)[C@H](O)[C@@H](O)[C@H]1O (stereo partly drawn) [D-galactose] here.
(A) 32.2

(Q) Supply recorded IC50 for OC[C@H]1OC(O)[C@@H](O)[C@@H](O)[C@@H]1O (some centres unmarked) [mannose] here.
(A) 7.8

---

target: Surfactant Protein D (SP-D) (Homo sapiens, UniProt P35247); construct: gene SFTPD; dodecamer (four trimeric units); assay: SPR competition of inactivated HIV BaL particles binding to immobilised SP-D; conditions: pH 7.4, calcium, 25 C, lectin site (CRD), competes with HIV glycans
parameterMeasured: IC50 (mM)
Kindly provide the numeric value in mM only, without the unit symbol.

(Q) Provide Surfactant Protein D (SP-D) (Homo sapiens, UniProt P35247) IC50 reading for OC[C@H]1OC(O)[C@H](O)[C@@H](O)[C@@H]1O (stereo partly shown) .
(A) 5.4
